Origin of the recorded values: ChEMBL document CHEMBL2169809

TARGET_UNDER_TEST: P2Y purinoceptor 12 (Homo sapiens, UniProt Q9H244)
Sequence (Q9H244 whole entry): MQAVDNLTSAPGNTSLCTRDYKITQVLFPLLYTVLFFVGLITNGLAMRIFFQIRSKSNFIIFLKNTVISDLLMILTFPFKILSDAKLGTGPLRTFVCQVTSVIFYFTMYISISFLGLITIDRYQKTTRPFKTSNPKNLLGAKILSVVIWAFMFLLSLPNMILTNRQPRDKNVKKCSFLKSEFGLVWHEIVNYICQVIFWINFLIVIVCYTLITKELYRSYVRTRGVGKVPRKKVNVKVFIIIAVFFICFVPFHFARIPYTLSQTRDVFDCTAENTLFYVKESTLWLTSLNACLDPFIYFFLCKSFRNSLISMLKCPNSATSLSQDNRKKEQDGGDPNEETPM
ASSAY_TEXT: Displacement of [33P]2-MeS-ADP from human recombinant P2Y12 receptor expressed in CHO cell membranes by scintillation counting method
The entries below come with measured pKi values attached.
Just so you know, pKi here is -log10 of the concentration in molar units; reply with that number alone.

- LINE_NOTATION: "CCOC(=O)N1CCN(C(=O)[C@H](CCO)NC(=O)c2cc(OCC(=O)N3CCC[C@H]3C(=O)NC3CCC3)n(-c3ccccc3)n2)CC1"
  ENDPOINT_RESULT: 7.64
- LINE_NOTATION: "CNc1cc2[nH]c(=O)n(-c3ccc(NC(=O)NS(=O)(=O)c4ccc(Cl)s4)cc3)c(=O)c2cc1F"
  ENDPOINT_RESULT: 7.64
- LINE_NOTATION: "CCOC(=O)N1CCN(C(=O)[C@@H](NC(=O)c2cc(OCC(=O)N3CCC[C@H]3C(=O)NC3CCC3)n(-c3ccccc3)n2)C(C)C)CC1"
  ENDPOINT_RESULT: 6.74
- LINE_NOTATION: "CCOC(=O)N1CCN(C(=O)[C@H](CCc2nnn[nH]2)NC(=O)c2cc(OCC(=O)N3CCC[C@H]3C(=O)NC3CCC3)n(-c3ccccc3)n2)CC1"
  ENDPOINT_RESULT: 8.30
- LINE_NOTATION: "CCOC(=O)N1CCN(C(=O)[C@H](CCC(=O)O)NC(=O)c2cc(OCC(=O)C(C)(C)C)n(-c3ccccc3)n2)CC1"
  ENDPOINT_RESULT: 6.62

// switching to the query compound
Hello, please tell me recorded pKi for this one: `CCOC(=O)N1CCN(C(=O)[C@H](CCNC(C)=O)NC(=O)c2cc(OCC(=O)N3CCC[C@H]3C(=O)NC3CCC3)n(-c3ccccc3)n2)CC1`
7.38

====

TARGET_UNDER_TEST: P2Y purinoceptor 12 (Homo sapiens, UniProt Q9H244)
ASSAY_TEXT: Displacement of [33P]2-MeS-ADP from human recombinant P2Y12 receptor expressed in CHO cell membranes by scintillation counting method
EXPERIMENTAL_READOUT: Ki (nM)
Respond numerically; units are nM and should not be typed.

- COMPOUND: "CCOC(=O)N1CCN(C(=O)[C@H](CCC(=O)O)NC(=O)c2cc(OCC(=O)N3CCC[C@H]3C(N)=O)n(-c3ccccc3)n2)CC1"
  Ki / nM: 283
- COMPOUND: "CCOC(=O)N1CCN(C(=O)[C@H](CCC(=O)O)NC(=O)c2cc(OCC(=O)N3CCC[C@H]3C(=O)NC3CCC3)n(-c3ccccc3)n2)CC1"
  Ki / nM: 7.3
- COMPOUND: "O=C(O)CC[C@H](NC(=O)c1cc(OCC(=O)N2CCC[C@H]2C(=O)NC2CCC2)n(-c2ccccc2)n1)C(=O)N1CCN(C(=O)Oc2ccccc2)CC1"
  Ki / nM: 71

Hello, please tell me recorded Ki for this one: `CCOC(=O)N1CCN(C(=O)[C@H](CCC(=O)O)NC(=O)c2cc(OCC(=O)N3CC[C@@H](O)C3)n(-c3ccccc3)n2)CC1`
459

Hello, please tell me recorded Ki for this one: `CCNC(=O)[C@@H]1CCCN1C(=O)COc1cc(C(=O)N[C@@H](CCC(=O)O)C(=O)N2CCN(C(=O)OCC)CC2)nn1-c1ccccc1`
303

====

TARGET_UNDER_TEST: P2Y purinoceptor 12 (Homo sapiens)
ASSAY_TEXT: Displacement of [33P]2-MeS-ADP from human recombinant P2Y12 receptor expressed in CHO cell membranes by scintillation counting method
pKi: −log10 of the molar value.
Answer NOT MET if pKi is under 7, and MET if it is 7 or more.

- LINE_NOTATION: "O=C(O)CC[C@H](NC(=O)c1cc(OCC(=O)N2CCC[C@H]2C(=O)NC2CCC2)n(-c2ccccc2)n1)C(=O)N1CCN(C(=O)OC2CCC2)CC1"
  TARGET_UNDER_TEST: "P2Y purinoceptor 12 (Homo sapiens)"
  CATEGORY_LABEL: "MET"
- LINE_NOTATION: "O=C(O)CC[C@H](NC(=O)c1cc(OCC(=O)N2CCC[C@H]2C(=O)NC2CCC2)n(-c2ccccc2)n1)C(=O)N1CCN(C(=O)OCc2ccccc2)CC1"
  TARGET_UNDER_TEST: "P2Y purinoceptor 12 (Homo sapiens)"
  CATEGORY_LABEL: "MET"
- LINE_NOTATION: "CCOC(=O)N1CCN(C(=O)[C@H](CCC(=O)O)NC(=O)c2cc(OCC(=O)N3CCCC3=O)n(-c3ccccc3)n2)CC1"
  TARGET_UNDER_TEST: "P2Y purinoceptor 12 (Homo sapiens)"
  CATEGORY_LABEL: "NOT MET"

In plain terms: is recorded pKi at least 7 for `CCOC(=O)N1CCN(C(=O)[C@H](CCC(=O)O)NC(=O)c2cc(OCC(=O)N3CCC[C@H]3C(=O)NC3CCCC3)n(-c3ccccc3)n2)CC1` ?
MET

In plain terms: is recorded pKi at least 7 for `CCOC(=O)N1CCN(C(=O)[C@H](CC(C)C)NC(=O)c2cc(OCC(=O)N3CCC[C@H]3C(=O)NC3CCC3)n(-c3ccccc3)n2)CC1` ?
NOT MET

In plain terms: is recorded pKi at least 7 for `CCOC(=O)N1CCN(C(=O)[C@H](CCC(=O)O)NC(=O)c2cc(OCC(=O)C3CC3)n(-c3ccccc3)n2)CC1` ?
NOT MET

====

TARGET_UNDER_TEST: P2Y purinoceptor 12 (Homo sapiens)
ASSAY_TEXT: Displacement of [33P]2-MeS-ADP from human recombinant P2Y12 receptor expressed in CHO cell membranes by scintillation counting method
EXPERIMENTAL_READOUT: Ki (nM)
Respond numerically; units are nM and should not be typed.

Observe how each entry below is paired with its result.
- LINE_NOTATION: "CCOC(=O)N1CCN(C(=O)[C@H](CCC(=O)O)NC(=O)c2cc(OCC(=O)N3CCC[C@H]3C(=O)NC3CCC3)n(-c3ccccc3)n2)C[C@@H]1C"
  ENDPOINT_RESULT: 80
- LINE_NOTATION: "CCOC(=O)COc1cc(C(=O)N[C@@H](CCC(=O)O)C(=O)N2CCN(C(=O)OCC)CC2)nn1-c1ccccc1"
  ENDPOINT_RESULT: 372
- LINE_NOTATION: "CCCCOC(=O)N1CCN(C(=O)CNC(=O)c2cc(OCC(=O)N3CCC[C@H]3C(=O)NC3CCC3)n(-c3ccccc3)n2)CC1"
  ENDPOINT_RESULT: 7.7

Hello, please tell me recorded Ki for this one: `O=C(O)CC[C@H](NC(=O)c1cc(OCC(=O)N2CCC[C@H]2C(=O)NC2CCC2)n(-c2ccccc2)n1)C(=O)N1CCC(C(=O)c2ccccc2)CC1`
40

====

TARGET_UNDER_TEST: P2Y purinoceptor 1 (Homo sapiens, UniProt P47900)
Sequence (P47900 whole entry): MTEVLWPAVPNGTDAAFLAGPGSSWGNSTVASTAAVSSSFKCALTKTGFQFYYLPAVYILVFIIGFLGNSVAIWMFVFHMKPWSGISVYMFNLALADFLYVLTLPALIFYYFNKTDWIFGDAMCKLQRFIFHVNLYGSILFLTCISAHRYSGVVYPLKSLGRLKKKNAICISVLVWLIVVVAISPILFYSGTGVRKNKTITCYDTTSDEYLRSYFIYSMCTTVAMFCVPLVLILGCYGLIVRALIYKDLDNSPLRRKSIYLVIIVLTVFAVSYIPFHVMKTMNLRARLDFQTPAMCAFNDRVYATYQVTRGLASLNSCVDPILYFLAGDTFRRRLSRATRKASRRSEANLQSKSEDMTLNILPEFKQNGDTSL
ASSAY_TEXT: Displacement of [33P]2-MeS-ADP from human recombinant P2Y1 receptor expressed in CHO cell membranes by scintillation counting method
EXPERIMENTAL_READOUT: Ki

Observe how each entry below is paired with its result.
- LINE_NOTATION: "CCCCOC(=O)N1CCN(C(=O)CNC(=O)c2cc(OCC(=O)N3CCC[C@H]3C(=O)NC3CCC3)n(-c3ccccc3)n2)CC1"
  Ki: "> 20 µM"
- LINE_NOTATION: "CCOC(=O)N1CCN(C(=O)[C@H](CCC(=O)O)NC(=O)c2cc(OC3(C(=O)OCC)CCC3)n(-c3ccccc3)n2)CC1"
  Ki: "> 20 µM"

// switching to the query compound
Hello, please tell me recorded Ki for this one: `CCOC(=O)N1CCN(C(=O)[C@H](CCC(=O)O)NC(=O)c2cc(OCC(=O)N3CCC[C@H]3C(=O)NC3CCC3)n(-c3ccccc3)n2)CC1`
> 20 µM

====

TARGET_UNDER_TEST: UniProt Q9H244
ASSAY_TEXT: Displacement of [33P]2-MeS-ADP from human recombinant P2Y12 receptor expressed in CHO cell membranes by scintillation counting method
The entries below come with measured log10 of Ki values attached.
Please interpret these as log10 of Ki where Ki is in nM.

- MOLECULE: "CCCCOC(=O)N1CCN(C(=O)[C@H](CCC(=O)O)NC(=O)c2cc(OCC(=O)N3CCC[C@H]3C(=O)NC3CCC3)n(-c3ccccc3)n2)CC1"
  log10 of Ki: -0.10
- MOLECULE: "CCOC(=O)N1CCN(C(=O)[C@H](CCC(=O)O)NC(=O)c2cc(OCC(=O)N3CCC[C@H]3C(=O)NC(C)C)n(-c3ccccc3)n2)CC1"
  log10 of Ki: 1.75
- MOLECULE: "CCOC(=O)N1CCN(C(=O)[C@H](CCCCO)NC(=O)c2cc(OCC(=O)N3CCC[C@H]3C(=O)NC3CCC3)n(-c3ccccc3)n2)CC1"
  log10 of Ki: 2.31
- MOLECULE: "CCCOC(=O)N1CCN(C(=O)[C@H](CCC(=O)O)NC(=O)c2cc(OCC(=O)N3CCC[C@H]3C(=O)NC3CCC3)n(-c3ccccc3)n2)CC1"
  log10 of Ki: 0.49

Hello, please tell me recorded log10 of Ki for this one: `CCC[C@H](NC(=O)c1cc(OCC(=O)N2CCC[C@H]2C(=O)NC2CCC2)n(-c2ccccc2)n1)C(=O)N1CCN(C(=O)OCC)CC1`
2.24

Hello, please tell me recorded log10 of Ki for this one: `CCOC(=O)N1CCN(C(=O)[C@H](CCC(=O)O)NC(=O)c2cc(OCC(=O)N3CCC[C@H]3C(=O)NC3CCC3)n(-c3ccccc3)n2)[C@H](C)C1`
0.89
